As shown below, each of these compounds has a reported ipa/ipc, ratio of anodic to cathodic current value.
assay: Cyclic voltammetry
Type: physicochemical
runParameters: acetonitrile, scan rate 100 mV s−1
Note: the reply should be a number with no unit written.

1. Cc1ccc(/C=N/N=C/c2ccc([N+](=O)[O-])o2)cc1; 1.007

q: Given the compound O=[N+]([O-])c1ccc(/C=N/N=C/c2ccc([N+](=O)[O-])o2)cc1 , what is its reported ipa/ipc, ratio of anodic to cathodic current?
a: 0.963

q: One more compound: O=[N+]([O-])c1ccc(/C=N/N=C/c2ccccc2)o1
a: 1.016

q: One more compound: O=[N+]([O-])c1ccc(/C=N/N=C/c2ccc(F)cc2)s1
a: 1.022

q: One more compound: O=[N+]([O-])c1ccc(/C=N/N=C/c2ccc(O)cc2)s1
a: 1.002
